Taken from patent US10703764B2.

biological target: BRD4 BD1 (Homo sapiens); assay: AlphaScreen binding assay, BRD4 Bromodomain 1
# Lookup of reported IC50 keyed by entry

> print(dat)
                                smiles.data            target.system            result
1  COC(=O)N1c2ccc(-c3cnn(CC(=O)O)c3)cc2N(C(=O)OC(C)C)C[C@@H]1C  BRD4 BD1 (Homo sapiens)  1000 to 10000 nM

// query IC50 value for entry CCOC(=O)N1C[C@H](C)N(C(C)=O)c2ccc(-c3ccc(N4CCCC4=O)cc3)cc21
1000 to 10000 nM

// query IC50 value for entry CC(=O)N1c2ccc(-c3cnn(CCC(F)(F)F)c3)cc2N(C(=O)C2CC2)C[C@@H]1C
100 to 1000 nM

// query IC50 value for entry COC(=O)N1c2ccc(-c3cnn(CC(C)(C)O)c3)cc2N(C(=O)Oc2ccccn2)C[C@@H]1C
1000 to 10000 nM

// query IC50 value for entry COC(=O)N1c2ccc(-c3cnn(C4COC4)c3)cc2N(C(=O)OC(C)C)C[C@@H]1C
100 to 1000 nM

// query IC50 value for entry CC(=O)N1CCN(C(=O)c2ccc(-c3ccc4c(c3)N(C(=O)OC(C)C)C[C@H](C)N4C(C)=O)cc2)CC1
100 to 1000 nM

// query IC50 value for entry CC(=O)N1c2ccc(-c3ccc4c(c3)N(S(C)(=O)=O)CCC4)cc2N(C(=O)OC(C)C)C[C@@H]1C
100 to 1000 nM

// query IC50 value for entry CC(=O)N1c2ccc(-c3cn[nH]c3)cc2N(C(=O)Oc2ccccc2)C[C@@H]1C
100 to 1000 nM

----------
Biological target: BRD4 BD2 (Homo sapiens)
Experiment: AlphaScreen binding assay, BRD4 Bromodomain 2
Protocol: The binding of Example compounds to BRD4 Bromodomain 1 and BRD4 Bromodomain 2 was assessed using 384-well AlphaScreen assay technology. His-epitope tagged BRD4 BD144-168 and BRD4 BD2333-460 were cloned, expressed, and purified to homogeneity. BRD4 BD1 and BRD4 BD2 binding and inhibition was assessed by monitoring the engagement of biotinylated Histone H4 (1-21) K5/8/12/16 tetra-acetylated peptide with the targets using the AlphaScreen technology (PerkinElmer). […]
MEASURE_NAME: IC50

Some molecules with known IC50 results, for comparison:
> print(dat)
                                smiles.data  measure.name        result
1  CC(=O)N1c2ccccc2N(C(=O)COc2ccc(Cl)cc2)C[C@@H]1C          IC50      > 500 nM
2  CC(=O)N1c2ccc(-c3cncc(Cl)c3)cc2N(C(=O)c2ccco2)C[C@@H]1C          IC50  50 to 500 nM
3  COC(=O)N1c2ccc(-c3cnn(CC(F)(F)F)c3)cc2N(C(=O)OC(C)C)C[C@@H]1C          IC50      > 500 nM
4  COC(=O)N1c2ccc(-c3ccc4c(c3)CCN4S(C)(=O)=O)cc2N(C(=O)Oc2ccccn2)C[C@@H]1C          IC50  50 to 500 nM

// query IC50 value for entry COC(=O)N1c2ccc(-c3ccc(N4CCCS4(=O)=O)cc3)cc2N(C(=O)C2CC2)C[C@@H]1C
50 to 500 nM

// query IC50 value for entry CC(=O)N1c2ccc(-c3ccc(N4CCCS4(=O)=O)cc3)cc2N(C(=O)Oc2ccc(F)cc2F)C[C@@H]1C
< 50 nM

// query IC50 value for entry CC(=O)N1c2ccc(-c3ccc(S(C)(=O)=O)cc3)cc2N(C(=O)C(C)C)C[C@@H]1C
> 500 nM

----------
# Lookup of reported pIC50 keyed by entry
target: BRD4 BD1 (Homo sapiens, UniProt O60885); assay: AlphaScreen binding assay, BRD4 Bromodomain 1
pIC50: −log10 of the molar value.

Some compounds with known pIC50 results, for comparison:
> print(dat)
                                smiles.data        result
1  CC(=O)N1c2ccc(-c3ccc(S(=O)(=O)C4CC4)cc3)cc2N(C(=O)C2CCC2)C[C@@H]1C  5.00 to 6.00
2  COC(=O)N1c2ccc(-c3ccc(S(C)(=O)=O)cc3)cc2N(C(=O)Oc2ccccn2)C[C@@H]1C  5.00 to 6.00
3  CC(=O)N1c2ccc(-c3cnn(CC(=O)O)c3)cc2N(C(=O)C2CC2)C[C@@H]1C  5.00 to 6.00
4  CC(=O)N1c2ccc(-c3cccc(S(=O)(=O)NCCO)c3)cc2N(C(=O)OC(C)C)C[C@@H]1C  6.00 to 7.00
5  CC(=O)N1c2ccc(-c3cnn(Cc4cc(C)no4)c3)cc2N(C(=O)OC(C)C)C[C@@H]1C  6.00 to 7.00

// query pIC50 value for entry CC(=O)N1c2ccc(-c3cccc(C(=O)N(C)C)c3)cc2N(C(=O)c2ccco2)C[C@@H]1C
6.00 to 7.00

// query pIC50 value for entry CC(=O)N1c2ccc(-c3cnn(CC(C)(C)O)c3)cc2N(C(=O)OC(C)C)C[C@@H]1C
6.00 to 7.00

----------
# Lookup of reported pIC50 keyed by entry
molecular target: BRD4 BD2 (Homo sapiens, UniProt O60885); assay: AlphaScreen binding assay, BRD4 Bromodomain 2
pIC50: −log10 of the molar value.

> print(dat)
                                   compound  result
1  CC(=O)N1c2ccccc2N(S(=O)(=O)Cc2cccc(C#N)c2)C[C@@H]1C [Example I-958]  < 6.30
2  CC(=O)N1c2ccccc2N(C(=O)Cc2ccc3c(c2)OCO3)C[C@@H]1C [Example I-709]  < 6.30

// query pIC50 value for entry CC(=O)N1c2ccc(-c3ccc(S(=O)(=O)C4CC4)cc3)cc2N(C(=O)C2CC2)C[C@@H]1C [Example I-1031]
6.30 to 7.30

// query pIC50 value for entry CC(=O)N1c2ccc(-c3cnn(C4CCNCC4)c3)cc2N(c2nn(C)c3ccccc23)C[C@@H]1C [Example I-181]
> 7.30

// query pIC50 value for entry CC(=O)N1c2ccc(-c3ccc(S(C)(=O)=O)cc3)cc2N(C(=O)c2ccc(F)cc2)C[C@@H]1C [Example I-878]
6.30 to 7.30

----------
target: BRD4 BD1 (Homo sapiens); test: AlphaScreen binding assay, BRD4 Bromodomain 1
# Lookup of reported IC50 keyed by entry

Some compounds with known IC50 results, for comparison:
> print(dat)
                                smiles.data       result
1  CC(=O)N1c2ccc(-c3cnn(C4CC4)c3)cc2N(C(=O)OCC2CC2)C[C@@H]1C  0.1 to 1 µM
2  CC(=O)N1c2cc(Br)c(-c3ccc(S(C)(=O)=O)cc3)cc2N(C(=O)OC(C)C)C[C@@H]1C   1 to 10 µM
3  CC(=O)N1c2ccc(-c3ccc(CS(N)(=O)=O)cc3)cc2N(C(=O)c2ccco2)C[C@@H]1C   1 to 10 µM

Form field: IC50 recorded for CC(=O)N1c2ccc(-c3ccc(S(N)(=O)=O)c(F)c3)cc2N(C(=O)OC(C)C)C[C@@H]1C with BRD4 BD1 (Homo sapiens) (enter value)
1 to 10 µM

Form field: IC50 recorded for CC(=O)N1c2ccc(-c3cnn(C4COC4)c3)cc2N(C(=O)OC2COC2)C[C@@H]1C with BRD4 BD1 (Homo sapiens) (enter value)
0.1 to 1 µM

Form field: IC50 recorded for CC(=O)N1c2ccc(-c3cnn(C4CC4)c3)cc2N(C(=O)Oc2ccc(Cl)c3cccnc23)C[C@@H]1C with BRD4 BD1 (Homo sapiens) (enter value)
0.1 to 1 µM

Form field: IC50 recorded for CC(=O)N1c2ccc(-c3ccc(S(C)(=O)=O)cc3)cc2N(C(=O)Oc2ccc(F)cc2F)C[C@@H]1C with BRD4 BD1 (Homo sapiens) (enter value)
1 to 10 µM

----------
molecular target: BRD4 BD1 (Homo sapiens, UniProt O60885); construct: made in house; assay: AlphaScreen binding assay, BRD4 Bromodomain 1
pIC50: −log10 of the molar value.
MEASURE_NAME: pIC50

> print(dat)
                                   compound        result
1  COc1ccc(CC(=O)N2C[C@H](C)N(C(C)=O)c3ccccc32)cc1        < 5.00
2  CC(=O)N1c2ccccc2N(C(=O)c2ccc3cc[nH]c3c2)CC1C (stereo not drawn)        < 5.00
3  CC(=O)N1c2ccc(-c3cnn(C4COC4)c3)cc2N(C(=O)OCC(C)(F)F)C[C@@H]1C  6.00 to 7.00
4  CC(=O)N1c2ccc(-c3ccc(S(=O)(=O)CC(C)C)cc3)cc2N(C(=O)C2CC2)C[C@@H]1C  5.00 to 6.00

Form field: pIC50 recorded for CC(=O)N1c2ccc(-c3cnn(C4CS(=O)(=O)C4)c3)cc2N(C(=O)OC2CCCCC2)C[C@@H]1C with BRD4 BD1 (Homo sapiens, UniProt O60885) (enter value)
6.00 to 7.00

Form field: pIC50 recorded for CC(=O)N1c2ccc(-c3cnn(C4CC4)c3)cc2N(C(=O)Oc2cccc(F)c2)C[C@@H]1C with BRD4 BD1 (Homo sapiens, UniProt O60885) (enter value)
6.00 to 7.00

Form field: pIC50 recorded for CC(=O)N1c2ccc(-c3ccc(C(=O)N4CCNCC4)cc3)cc2N(C(=O)c2ccco2)C[C@@H]1C with BRD4 BD1 (Homo sapiens, UniProt O60885) (enter value)
6.00 to 7.00

Form field: pIC50 recorded for CC(=O)N1c2ccc(-c3cnn(Cc4ccn(C)n4)c3)cc2N(C(=O)C2CC2)C[C@@H]1C with BRD4 BD1 (Homo sapiens, UniProt O60885) (enter value)
6.00 to 7.00

Form field: pIC50 recorded for CC(=O)N1c2ccc(-c3ccc(S(=O)(=O)CCN)cc3)cc2N(C(=O)C2CC2)C[C@@H]1C with BRD4 BD1 (Homo sapiens, UniProt O60885) (enter value)
5.00 to 6.00
